Molecular target: GABAA Cl channel
Construct: other: determined graphically, increasing concentr; other: 10^-4M, bovine hippocampus
Assay type: binding, bovine
Conditions: determined graphically, increasing concentrations; read-out: binding constant (KD), inhibition of TBOB binding to GABAA receptor
Quantity Kind: pKd
Scale: negative log10 of molar concentration, which is what pKd denotes.

**Query** Respond only with pKd recorded for "CC(C)c1cc(C(=O)c2ccc(C(F)(F)F)cc2)cc(C(C)C)c1O"
**Result** 6.38

**Query** Recall and state the measured pKd for "CC(C)c1cc(C(=O)c2ccc(I)cc2)cc(C(C)C)c1O" .
**Result** 6.44

* * *

Assay: in vivo
Details: rat, in vivo, iv, 5 mg/kg
Source text: Time plasma concentration curve was processed using a two compartment PK model supported by WinNonlin.
Quantity Kind: Cmax (ng/mL)
Quick note: give the figure in ng/mL, leave out the unit.

**Query** Indicate its recorded Cmax; the molecule in question is "CC(C)c1cccc(C(C)C)c1O"
**Result** 300
